# subjectOfTest: EP4 (Homo sapiens (Human))
# assayComment: hEP4 cAMP assay (BT549 breast cancer cells, HTRF cAMP)
# Format: cell-based
# conditionSummary: antagonistic activity, PGE2 6 nM
pIC50: −log10 of the molar value.
pIC50 vs 7: at or above is label 1, below is label 0.

Example results:
COc1cc2sccc2cc1CCNc1cc(-c2ccc(CC(=O)O)c(SC)c2)ncn1 ... label 0
CSc1cc(-c2cc(NCCc3ccc4[nH]ccc4c3)ncn2)ccc1C(=O)O ... label 0
CCOc1cc(-c2cc(NCCc3cc4ccccc4cc3OC(C)C)ncn2)sc1C(=O)O ... label 1
CCOc1cc(-c2cc(NCCc3cc4ccsc4cc3C)ncn2)sc1C(=O)O ... label 1
CCOc1cc(-c2cc(NCCc3ccc4sccc4c3)ncn2)ccc1CC(=O)O ... label 0
CCOc1cc(-c2cc(NCCc3c(F)c(F)c4cc(C)oc4c3OC)ncn2)sc1C(=O)O ... label 1
CCOc1cc(-c2cc(NCCc3ccc4c(c3)OCCC4)ncn2)ccc1CC(=O)O ... label 0
CCOc1cc2c(cc1CCNc1cc(-c3cc(OCC)c(C(=O)O)s3)ncn1)OCCO2 ... label 1
C=Cc1c(CCNc2cc(-c3cc(OCC)c(C(=O)O)s3)ncn2)ccc2ccccc12 ... label 1
COc1cc2c(cc1CCNc1cc(-c3ccc(CC(=O)O)c(SC)c3)ncn1)OCCO2 ... label 0

**Query** Answer whether pIC50 of `CCOc1cc(-c2cc(NCCc3cc4cccnc4cc3C)ncn2)sc1C(=O)O` is greater than or equal to 7.
**Result** label 0

**Query** Answer whether pIC50 of `CCOc1cc(-c2cc(NCCc3ccc4ccccc4c3)ncn2)sc1-c1noc(=O)[nH]1` is greater than or equal to 7.
**Result** label 1

**Query** Answer whether pIC50 of `O=C(O)c1ccc(-c2cc(NCCc3ccc4c(c3)CCS4)ncn2)cc1OC1CCC1` is greater than or equal to 7.
**Result** label 0

**Query** Answer whether pIC50 of `CCOc1cc(-c2cc(NCCc3cc4c(cc3C)OCCO4)ncn2)sc1C(=O)O` is greater than or equal to 7.
**Result** label 1

**Query** Answer whether pIC50 of `CSc1cc(-c2cc(NCCc3cc4ccsc4cc3C#N)ncn2)ccc1C(=O)O` is greater than or equal to 7.
**Result** label 1

**Query** Answer whether pIC50 of `CSc1cc(-c2cc(NCCc3ccc4c(c3)CCC4)ncn2)ccc1C(=O)O` is greater than or equal to 7.
**Result** label 0

**Query** Answer whether pIC50 of `CCOc1cc(-c2cc(NCCc3c(F)c(F)c4cc(C)oc4c3OC)ncn2)ccc1C(=O)O` is greater than or equal to 7.
**Result** label 0

**Query** Answer whether pIC50 of `NC(=O)c1ccc(-c2cc(NCCc3c(F)cc4ncccc4c3F)ncn2)s1` is greater than or equal to 7.
**Result** label 0

**Query** Answer whether pIC50 of `CCOc1cc(-c2cc(NCCc3ccc4c(c3)OCC4)ncn2)sc1C(=O)O` is greater than or equal to 7.
**Result** label 1

**Query** Answer whether pIC50 of `CCOc1cc(-c2cc(NCCc3ccc4ccccc4c3C)ncn2)sc1CCC(=O)O` is greater than or equal to 7.
**Result** label 1

**Query** Answer whether pIC50 of `CCOc1cc(-c2cc(NCCc3cc4ccccc4cc3C#N)ncn2)ccc1OCC(=O)O` is greater than or equal to 7.
**Result** label 1

**Query** Answer whether pIC50 of `CCCOc1cc(-c2cc(NCCc3ccc4ccccc4c3C)ncn2)ccc1C(=O)O` is greater than or equal to 7.
**Result** label 0

**Query** Answer whether pIC50 of `CCOc1cc(-c2cc(NCCc3ccc4scc(C#N)c4c3)ncn2)sc1C(=O)O` is greater than or equal to 7.
**Result** label 1

###

# subjectOfTest: UniProt:P43116
# assayComment: hEP2 b-arrestin assay (PathHunter HEK 293 PTGER2 b-arrestin cells)
# conditionSummary: antagonistic activity, beta-arrestin assay; read-out: hEP2 b-arr IC50
reportedProperty: IC50 (nM)
Quick note: give the figure in nM, leave out the unit.

**Query** Sample `CCCc1cc(-c2cc(NCCc3ccc4ccccc4c3C)ncn2)ccc1C(=O)O` — what was its IC50?
**Result** 135

###

# subjectOfTest: EP2 (Homo sapiens (Human))
# Sequence (P43116 whole entry): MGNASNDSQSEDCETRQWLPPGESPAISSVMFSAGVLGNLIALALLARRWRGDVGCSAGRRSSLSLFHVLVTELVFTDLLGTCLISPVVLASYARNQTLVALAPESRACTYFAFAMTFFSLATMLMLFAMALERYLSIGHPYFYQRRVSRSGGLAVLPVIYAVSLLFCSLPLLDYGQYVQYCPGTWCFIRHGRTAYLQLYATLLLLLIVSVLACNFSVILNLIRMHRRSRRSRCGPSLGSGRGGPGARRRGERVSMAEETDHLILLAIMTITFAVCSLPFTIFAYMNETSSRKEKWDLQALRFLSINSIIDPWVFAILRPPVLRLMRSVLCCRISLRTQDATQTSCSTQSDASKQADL
# assayComment: hEP2 cAMP assay (SF295 glioblastoma cells, HTRF cAMP)
# conditionSummary: antagonistic activity
reportedProperty: log10(IC50) (log10 of the value in nM)
Remember, log10 of IC50, in nM.

Answered examples (4):
COc1cc2c(cc1CCNc1cc(-c3ccc4oc(C(=O)O)cc4c3)ncn1)OCCO2 ... 1.93
CCOc1cc(-c2cc(NCCc3c(F)cc4ncccc4c3F)ncn2)sc1C(=O)O ... 1.63
COc1cc2c(cc1CCNc1cc(-c3ccc4c(C(=O)O)c[nH]c4c3)ncn1)OCCO2 ... 2.06
Cc1c(Cl)c(CCNc2cc(-c3ccc(C(=O)O)c(OC4CCC4)c3)ncn2)cc2cccnc12 ... 2.72

Shifting focus to the compound that follows.
**Query** Sample `CCOc1cc(-c2cc(NCCc3ccc4sccc4c3)ncn2)sc1-c1noc(=O)[nH]1` — what was its log10(IC50)?
**Result** 2.02

###

# subjectOfTest: PTGER4 (EP4) (Homo sapiens (Human), UniProt P35408)
# Sequence (P35408 whole entry): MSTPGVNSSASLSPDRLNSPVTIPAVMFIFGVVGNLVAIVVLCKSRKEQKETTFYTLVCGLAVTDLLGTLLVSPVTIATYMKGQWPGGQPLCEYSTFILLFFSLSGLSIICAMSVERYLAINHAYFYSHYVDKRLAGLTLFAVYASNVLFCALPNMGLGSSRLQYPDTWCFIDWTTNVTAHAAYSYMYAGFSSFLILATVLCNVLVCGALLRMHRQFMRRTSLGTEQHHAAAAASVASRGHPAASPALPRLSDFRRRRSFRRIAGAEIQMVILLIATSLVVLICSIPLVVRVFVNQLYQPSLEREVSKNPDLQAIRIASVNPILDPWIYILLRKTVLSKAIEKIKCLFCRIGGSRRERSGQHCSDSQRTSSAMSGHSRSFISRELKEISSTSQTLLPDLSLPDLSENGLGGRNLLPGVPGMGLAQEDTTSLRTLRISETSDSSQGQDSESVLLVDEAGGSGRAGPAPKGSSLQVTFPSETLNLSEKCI
# assayComment: cell-based
Quick reference for pIC50 among some compounds
Interpret pIC50 as the negative base-10 log of the concentration measured in mol/L.

Answered examples (2):
CCOc1cc(-c2cc(NCCc3cc4c(cc3OC)OCCO4)ncn2)ccc1OC(C)C(=O)O (stereo not drawn) ... 6.95
O=C(O)c1cccc2[nH]c(-c3cc(NCCc4cc(F)c5sccc5c4)ncn3)cc12 ... 6.96

Shifting focus to the compound that follows.
**Query** Sample `CCOc1cc(-c2cc(NCCc3ccc4scc(Cl)c4c3)ncn2)ccc1CC(=O)O` — what was its pIC50?
**Result** 7.28

###

# subjectOfTest: PTGER4 (EP4) (Homo sapiens (Human))
pIC50: −log10 of the molar value.
pIC50 vs 7: at or above is MET, below is NOT MET.

COc1cc2ccccc2c(C)c1CCNc1cc(-c2ccc(C(=O)O)c(OC3CCC3)c2)ncn1 ... MET
CCOc1cc(-c2cc(NCCc3ccc4scc(C#N)c4c3)ncn2)ccc1C(=O)O ... NOT MET
CCOc1cc2ccccc2cc1CCNc1cc(-c2cc(OCC)c(C(=O)O)s2)ncn1 ... MET
CSc1cc(-c2cc(NCCc3ccc4scc(C#N)c4c3)ncn2)ccc1C(=O)O ... NOT MET

In the following, a different compound is considered.
**Query** Answer whether pIC50 of `CCOc1cc(-c2cc(NCCc3ccc4cccc(F)c4c3)ncn2)sc1C(=O)O` is greater than or equal to 7.
**Result** MET

###

# subjectOfTest: EP2 (Homo sapiens (Human))
# assayComment: hEP2 cAMP assay (SF295 glioblastoma cells, HTRF cAMP)
# Type: cell-based
# conditionSummary: antagonistic activity
Exam item: assign fulfilled to entries whose IC50 is below 0.1 µM and not fulfilled to entries at or above 0.1 µM. Note that a value of exactly 0.1 µM receives not fulfilled.

Example results:
CCOc1cc(-c2cc(NCCc3cc(F)c4c(c3)OCCO4)ncn2)sc1C(=O)O ... not fulfilled
CCOc1cc(-c2cc(NCCc3cc4ccoc4cc3OC)ncn2)sc1C(=O)O ... fulfilled
COc1cc2c(cc1CCNc1cc(-c3ccc(C(=O)O)c(CC(C)C)c3)ncn1)OCCO2 ... not fulfilled
CSc1cc(-c2cc(NCCc3ccc4c(c3)CCC4)ncn2)ccc1C(=O)O ... not fulfilled
C#Cc1c(CCNc2cc(-c3ccc(C(=O)O)c(OC4CCC4)c3)ncn2)ccc2ccccc12 ... not fulfilled
CCSc1cc(-c2cc(NCCc3ccc4sccc4c3)ncn2)ccc1C(=O)O ... not fulfilled
CCOc1cc(-c2cc(NCCc3ccc4sccc4c3C)ncn2)ccc1CC(=O)O ... not fulfilled
CCOc1cc(-c2cc(NCCc3ccc4sccc4c3)ncn2)ccc1OC(C)C(=O)O (centres unmarked) ... not fulfilled
CCOc1cc(-c2cc(NCCc3cc4ccoc4cc3F)ncn2)ccc1OCC(=O)O ... not fulfilled
CCOc1cc(-c2cc(NCCc3cc4cccnc4cc3F)ncn2)sc1-c1noc(=O)[nH]1 ... not fulfilled

**Query** Below 0.1 µM on IC50? Entry `CCOc1cc(-c2cc(NCCc3ccc4sccc4c3)ncn2)ccc1C(=O)O`
**Result** not fulfilled

**Query** Below 0.1 µM on IC50? Entry `CSc1cc(-c2cc(NCCc3ccc4cc[nH]c4c3)ncn2)ccc1C(=O)O`
**Result** not fulfilled

**Query** Below 0.1 µM on IC50? Entry `CCOc1cc(-c2cc(NCCc3ccc4ncoc4c3)ncn2)sc1C(=O)O`
**Result** not fulfilled

**Query** Below 0.1 µM on IC50? Entry `COc1cc2ccccc2c(C)c1CCNc1cc(-c2ccc(C(=O)O)c(SC)c2)ncn1`
**Result** fulfilled

**Query** Below 0.1 µM on IC50? Entry `CCc1nc(-c2cc(NCCc3ccc4ccccc4c3C)ncn2)sc1C(=O)O`
**Result** not fulfilled

**Query** Below 0.1 µM on IC50? Entry `CCOc1cc(-c2cc(NCCc3ccc4ccccc4c3C)ncn2)ccc1NCC(=O)O`
**Result** not fulfilled

**Query** Below 0.1 µM on IC50? Entry CCOc1cc(-c2cc(NCCc3cc4ccoc4cc3OC)ncn2)ccc1OC(C)C(=O)O (centres unmarked)
**Result** fulfilled

**Query** Below 0.1 µM on IC50? Entry `CCOc1cc(-c2cc(NCCc3ccc4[nH]ccc4c3)ncn2)sc1-c1noc(=O)[nH]1`
**Result** fulfilled

**Query** Below 0.1 µM on IC50? Entry `C#Cc1cc2ccccc2cc1CCNc1cc(-c2ccc(C(=O)O)c(OCC)c2)ncn1`
**Result** fulfilled

**Query** Below 0.1 µM on IC50? Entry `CCOc1cc(-c2cc(NCCc3cc4ccccc4cc3C#N)ncn2)ccc1OCC(=O)O`
**Result** not fulfilled

**Query** Below 0.1 µM on IC50? Entry `CCOc1cc(-c2cc(NCCc3ccc4scc(C)c4c3)ncn2)ccc1OCC(=O)O`
**Result** not fulfilled

**Query** Below 0.1 µM on IC50? Entry `COc1cc2occc2c(C)c1CCNc1cc(-c2ccc(C(=O)O)c(OC3CCC3)c2)ncn1`
**Result** fulfilled

**Query** Below 0.1 µM on IC50? Entry `CCOc1cc2c(cc1CCNc1cc(-c3ccc(C(=O)O)c(OCC)c3)ncn1)OCCO2`
**Result** fulfilled
